tested on: RARg homodimer (NR concentration 270 nM); assay: PBM binding z-score (relative to random genomic background probes); higher = stronger binding; sequences stand for … in GC…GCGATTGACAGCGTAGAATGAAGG
MEASURED QUANTITY: PBM binding z-score
Just the number, please, no unit after it.

Hey, RARg homodimer (NR concentration 270 nM) data for CGTCCAAGGTCATAGGAGGCCAGTGAAGACAGAT : PBM binding z-score came out at 5.84

Hey, RARg homodimer (NR concentration 270 nM) data for CCTTCTAGGTCATGGTCAGCTAATCTACAGTATG : PBM binding z-score came out at 5.08

Hey, RARg homodimer (NR concentration 270 nM) data for TCATATAGGTAAATGCTAGGCGAAAGTCCGATCT : PBM binding z-score came out at 0.256

Hey, RARg homodimer (NR concentration 270 nM) data for AGAATGAGGTTAAGATCAGAGAAACAGAATACAT : PBM binding z-score came out at 1.45

Hey, RARg homodimer (NR concentration 270 nM) data for TAGGCTAGGTCATGCGGGCCAGTATAGTGTCGGC : PBM binding z-score came out at 4.44

Hey, RARg homodimer (NR concentration 270 nM) data for CGTCCAAGGTCAGCAGGTTAGTGAAAGCGACGTG : PBM binding z-score came out at 6.05

Hey, RARg homodimer (NR concentration 270 nM) data for GCAACGAGGGCATTCGAGTTGATAGCATGGCGAT : PBM binding z-score came out at 1.45

Hey, RARg homodimer (NR concentration 270 nM) data for TCATATAGGTAAATGCTAGGTGAAAGACCGATCT : PBM binding z-score came out at 0.454

Hey, RARg homodimer (NR concentration 270 nM) data for AGAACGAGGGCAATCAGTTGATAGCACGGGTGGC : PBM binding z-score came out at 1.74

Hey, RARg homodimer (NR concentration 270 nM) data for ACAGACAGGTGAGTGATGGTAACTCAGCTGGACG : PBM binding z-score came out at 0.407

Hey, RARg homodimer (NR concentration 270 nM) data for ACTATTAGTTGAGACGAGGGCAACTGATAGGTTG : PBM binding z-score came out at 0.97

Hey, RARg homodimer (NR concentration 270 nM) data for CGTCAAAGTTCAAGGTAACGTATCAGAAAGCAGC : PBM binding z-score came out at 6.45

* * *

system: LXRa homodimer (NR concentration 270 nM); test: PBM binding z-score (relative to random genomic background probes); higher = stronger binding; sequences stand for … in GC…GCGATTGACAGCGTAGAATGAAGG
Binary classification by PBM binding z-score, with -0.3 as an inclusive lower bound for 1; all other cases are 0.

Prompt: Form field: PBM binding z-score at least -0.3? Entry: AGAACGAGGGCAATGGGTTGATAGCACGGGTGGC
Completion: 1

Prompt: Form field: PBM binding z-score at least -0.3? Entry: TCATATAGGTAAATGGTGAAAGTCGGTGTGGTAA
Completion: 1

Prompt: Form field: PBM binding z-score at least -0.3? Entry: TCTTGTAGATCAATAGAGGTAAAGAAAGTGCGCT
Completion: 0

Prompt: Form field: PBM binding z-score at least -0.3? Entry: GGAACGAGGGCAAAGTTGATTGCATCTGTCGACG
Completion: 0

Prompt: Form field: PBM binding z-score at least -0.3? Entry: ATATGCAGGTTACATCCGGGTCATTCAGGCTATG
Completion: 1

Prompt: Form field: PBM binding z-score at least -0.3? Entry: CCTTACGGGTCACTGACAGGTTATAGCATTTGGA
Completion: 1

Prompt: Form field: PBM binding z-score at least -0.3? Entry: TCTATTAGCTGAAGGGCAACCGACGAGTCCGTTT
Completion: 0

Prompt: Form field: PBM binding z-score at least -0.3? Entry: ATCTCTAGGTAAGACTCAGTTCAGTAAAGAACGC
Completion: 1

Prompt: Form field: PBM binding z-score at least -0.3? Entry: CCTCGGAAGACAACAGGAGGTCAGAGCTGCCAGA
Completion: 1

Prompt: Form field: PBM binding z-score at least -0.3? Entry: CCTAGCATGCCAGGGTCACTCAAGCATTTCGCTT
Completion: 0

Prompt: Form field: PBM binding z-score at least -0.3? Entry: GGAACGAGGGCGAAGTTGATAGCATCTGTCGACG
Completion: 0

Prompt: Form field: PBM binding z-score at least -0.3? Entry: CTCGAAAGGTGGGTTGAGGTGAGTATACGGATAA
Completion: 1
